Listed below: MFI @ 10 ug/ml values for each entry.
Target: T1, B7-H3 on B7-H3-expressing CHO cells (Genescript) (UniProt Q5ZPR3 29-534, limits assumed)
T1 construct: whole, on cells; also called CHO-K1/B7-H3; MFI B7-H3
T1 sequence (looked up): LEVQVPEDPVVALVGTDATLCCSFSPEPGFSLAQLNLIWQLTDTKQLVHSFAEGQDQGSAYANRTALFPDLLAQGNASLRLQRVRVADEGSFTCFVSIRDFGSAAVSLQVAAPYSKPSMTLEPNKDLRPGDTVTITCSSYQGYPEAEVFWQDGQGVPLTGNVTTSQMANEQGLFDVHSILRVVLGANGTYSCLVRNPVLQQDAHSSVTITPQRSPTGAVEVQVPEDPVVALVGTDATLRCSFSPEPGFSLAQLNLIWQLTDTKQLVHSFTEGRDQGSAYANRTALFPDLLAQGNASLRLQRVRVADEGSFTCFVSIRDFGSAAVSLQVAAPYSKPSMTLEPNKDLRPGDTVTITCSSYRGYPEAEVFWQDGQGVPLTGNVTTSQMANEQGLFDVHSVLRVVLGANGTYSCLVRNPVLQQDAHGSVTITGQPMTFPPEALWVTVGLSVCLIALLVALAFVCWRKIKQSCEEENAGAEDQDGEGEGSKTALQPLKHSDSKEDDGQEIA
Assay: flow cytometry, B7-H3-expressing CHO cells, 10 ug/ml
Observed Property: MFI @ 10 ug/ml (MFI)

INSERT INTO assay_data (binder, observed_property, readout_number) VALUES
  ('40633p1.2.D11 (scFv, V domains shown, Tested as scFv-Fc (Expi293 supernatant)) VH: EVQLESGGGLVQPGGSLRLSCAASGFTVSYYGMSWVRQAPGKGLEWVSAIKQDGSEKYYADSVKGRFTISRDNSKNTLYLQMNSLRAEDTAVYYCARHWNDYSNAMNVWGQGTTVTVSS VL: QSVLTQPPSASGTPGQRVTISCSGSTSNIAIDFVNWYQQLPGTAPKLLIYTIDQRPSGVPDRFSGSKSGTSASLAISGLQSEDEAVYYCASWDASLNGWVFGRGTKLTVL', 'MFI @ 10 ug/ml', 63200),
  ('40633p1.1.G11 (scFv, V domains shown, Tested as scFv-Fc (Expi293 supernatant)) VH: EVQLLESGGGLVQPGGSLRLSCAASGFTVSYYGMSWVRQAPGKGLEWVSVIKQDGSEEYYADSVKGRFTISRDNSKNTLYLQMNSPRAEDTAVYYCARHWNDYSNGMNVWGQGTTVTVSS VL: QSVLTQPPSASGTPGQRVTISCSGSTSNVGDRYVYWYQQLPGTAPKLLIYLDDQRPSGVPDRFSGSKSGTSASLAISGLQSEDEADYYCASWDASLNGWVFGGGTKLTVL', 'MFI @ 10 ug/ml', 75900),
  ('40511p1.2.A12 (scFv, V domains shown, Tested as scFv-Fc (Expi293 supernatant); also called 40511p1.2.Al2) VH: DVQLVESGGGVVRPGESLRLSCAASGFTFSSYAESWVRQAPGEGLEWVSIISGSGGNTFYADSVKGRFTISRDNSKNTLYLQMNSLRAEDTAVYYCARFAYGFFDYWGLGTLVTVSS VL: EIVLTQSPGTLSVSPGERATLSCRASQTVGSKLAWYQQKPGQPPSLLIYDASTRATGIPDRFSGSGSGTDFTLTISSLQSEDFAVYYCQQYRNWPPLTFGGGTKVEIK', 'MFI @ 10 ug/ml', 77200);

The values you see were collected from patent US20260008852A1.
